Target: 5-HT3 (Rattus norvegicus, UniProt P35563)
Sequence (P35563 24-483): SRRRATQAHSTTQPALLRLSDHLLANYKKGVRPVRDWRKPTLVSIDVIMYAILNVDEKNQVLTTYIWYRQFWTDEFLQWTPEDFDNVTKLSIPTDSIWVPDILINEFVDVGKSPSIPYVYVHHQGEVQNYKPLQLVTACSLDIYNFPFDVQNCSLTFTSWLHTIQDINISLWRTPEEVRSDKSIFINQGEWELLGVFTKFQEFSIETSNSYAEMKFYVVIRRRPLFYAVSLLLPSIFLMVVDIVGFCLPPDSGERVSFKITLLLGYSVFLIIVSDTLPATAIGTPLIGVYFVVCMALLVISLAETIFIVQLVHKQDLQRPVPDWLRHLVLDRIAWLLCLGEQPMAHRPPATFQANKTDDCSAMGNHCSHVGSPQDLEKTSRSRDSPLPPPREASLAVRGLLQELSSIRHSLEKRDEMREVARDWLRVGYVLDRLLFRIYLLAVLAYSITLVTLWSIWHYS
Assay: biochemical
Type: binding, Male Sprague-Dawley rats
Conditions: 0.2 nM [3H]GR65630, rat entorhinal cortex, 40 minutes, room temperature; read-out: 5-HT3 IC50
Structures can show the parent of a compound that is named as a salt.
recorded metric: pIC50
Recall that pIC50 is obtained by taking minus log10 of the concentration measured in molar.

For the compound CN1Cc2nc[nH]c2C[C@H]1C(=O)Nc1cccc2c1NCCC2 [Compd 36] , the measured pIC50 on 5-HT3 (Rattus norvegicus, UniProt P35563) was 6.99

For the compound CN1Cc2nc[nH]c2C[C@H]1C(=O)c1cc2ccccc2o1 [Compd 33] , the measured pIC50 on 5-HT3 (Rattus norvegicus, UniProt P35563) was 5.69

For the compound CCOc1ccccc1NC(=O)[C@H]1Cc2[nH]cnc2CN1C [Compd 10] , the measured pIC50 on 5-HT3 (Rattus norvegicus, UniProt P35563) was 8.38

For the compound CCOc1ccccc1NC(=O)[C@@H]1Cc2[nH]cnc2CN1C [Compd 17] , the measured pIC50 on 5-HT3 (Rattus norvegicus, UniProt P35563) was 7.81

For the compound COc1ccccc1NC(=O)[C@H]1Cc2[nH]cnc2CN1 [Compd 8] , the measured pIC50 on 5-HT3 (Rattus norvegicus, UniProt P35563) was 7.98

For the compound CN1Cc2nc[nH]c2C[C@H]1C(=O)Nc1ccc(F)c(F)c1F [Compd 35] , the measured pIC50 on 5-HT3 (Rattus norvegicus, UniProt P35563) was 6.80

For the compound COc1ccc(Cl)cc1NC(=O)[C@H]1Cc2[nH]cnc2CN1C [Compd 2] , the measured pIC50 on 5-HT3 (Rattus norvegicus, UniProt P35563) was 8.00

For the compound COc1ccc(OC)c(NC(=O)[C@@H]2Cc3nc[nH]c3CN2C)c1 [Compd 30, dihydrochloride] , the measured pIC50 on 5-HT3 (Rattus norvegicus, UniProt P35563) was 7.16

For the compound CN1Cc2[nH]cnc2C[C@@H]1C(=O)Nc1nccs1 [Compd 12] , the measured pIC50 on 5-HT3 (Rattus norvegicus, UniProt P35563) was 6.56

For the compound CN1Cc2nc[nH]c2C[C@@H]1C(=O)Nc1ccccc1O [Compd 1] , the measured pIC50 on 5-HT3 (Rattus norvegicus, UniProt P35563) was 7.96
